The following compounds are shown together with reported pKd values.
- ASSAY_PROTOCOL: Binding affinity to G-rich KRAS DNA (unknown origin) assessed as binding constant by SPR analysis
Keep in mind that pKd stands for -log10 of concentration in molar terms.

CCn1c2ccccc2c2cc(-c3nc(-c4ccc(N5CCN(C)CC5)cc4)c(-c4ccc(N5CCN(C)CC5)cc4)n3-c3ccc(OCCOCCO[C@@H]4O[C@H](CO)[C@@H](O)[C@H](O)[C@H]4NC(=O)C(F)(F)F)cc3)ccc21 (single isomer, unassigned): 4.75
CCn1c2ccccc2c2cc(-c3nc(-c4ccc(N5CCN(C)CC5)cc4)c(-c4ccc(N5CCN(Cc6cn(CCOCCO)nn6)CC5)cc4)[nH]3)ccc21: 5.25

Here's the next entry for you.
Name the recorded pKd of the item CCn1c2ccccc2c2cc(-c3nc(-c4ccc(N5CCN(C)CC5)cc4)c(-c4ccc(N5CCN(C)CC5)cc4)n3-c3ccc(OCCOCCO[C@@H]4O[C@H](CO)[C@@H](O)[C@H](O)[C@H]4N)cc3)ccc21 (single isomer, unassigned) in your answer. 5.64

----------
- System: HepG2
- ASSAY_PROTOCOL: Cytotoxicity against human HepG2 cells assessed as reduction in cell viability measured after 48 hrs by MTT assay
- Format: functional, cell-based
- CONDITION: HepG2, 48 h
READOUT_TYPE: IC50

Solved cases below.
CCn1c2ccccc2c2cc(-c3nc(-c4ccc(N5CCN(C)CC5)cc4)c(-c4ccc(N5CCN(C)CC5)cc4)n3-c3ccc(OCCOCCOC4(C)O[C@H]5O[C@H](COC(C)=O)[C@@H](OC(C)=O)[C@H](OC(C)=O)[C@H]5O4)cc3)ccc21 (single isomer, unassigned): 3 µM
CCn1c2ccccc2c2cc(-c3nc(-c4ccc(N5CCN(C)CC5)cc4)c(-c4ccc(N5CCN(C)CC5)cc4)n3-c3ccc(OC)cc3)ccc21: 6.1 µM
CCn1c2ccccc2c2cc(-c3nc(-c4ccc(N5CCN(C)CC5)cc4)c(-c4ccc(N5CCN(C)CC5)cc4)n3-c3ccc(OCCOCCO[C@@H]4O[C@H](CO)[C@@H](O)[C@H](O)[C@H]4O)cc3)ccc21 (single isomer, unassigned): > 32 µM

Here's the next entry for you.
Name the recorded IC50 of the item CCn1c2ccccc2c2cc(-c3nc(-c4ccc(N5CCN(C)CC5)cc4)c(-c4ccc(N5CCN(C)CC5)cc4)n3-c3ccc(OCCCO[C@@H]4O[C@H](CO)[C@@H](O)[C@H](O)[C@H]4O)cc3)ccc21 (single isomer, unassigned) in your answer. > 32 µM

----------
- ASSAY_PROTOCOL: Binding affinity to G-rich KRAS DNA (unknown origin) assessed as binding constant by SPR analysis
READOUT_TYPE: Kd (µM)
Please reply with the bare figure in µM and do not write the unit itself.

COc1ccc(-n2c(-c3ccc4c(c3)c3ccccc3n4Cc3cn(CCOCCO[C@@H]4O[C@H](CO)[C@@H](O)[C@H](O)[C@H]4O)nn3)nc(-c3ccc(N4CCN(C)CC4)cc3)c2-c2ccc(N3CCN(C)CC3)cc2)cc1 (single isomer, unassigned): 17.8
CCn1c2ccccc2c2cc(-c3nc(-c4ccc(N5CCN(C)CC5)cc4)c(-c4ccc(N5CCN(C)CC5)cc4)n3-c3ccc(OCCOCCOC4(C)O[C@H]5O[C@H](CO)[C@@H](O)[C@H](O)[C@H]5O4)cc3)ccc21 (single isomer, unassigned): 16.4
CCn1c2ccccc2c2cc(-c3nc(-c4ccc(N5CCN(C)CC5)cc4)c(-c4ccc(N5CCN(Cc6cn(CCOCCO[C@@H]7O[C@H](CO)[C@@H](O)[C@H](O)[C@H]7O)nn6)CC5)cc4)[nH]3)ccc21 (single isomer, unassigned): 4.8
CCn1c2ccccc2c2cc(-c3nc(-c4ccc(N5CCN(C)CC5)cc4)c(-c4ccc(N5CCN(C)CC5)cc4)n3CCOCCO[C@@H]3O[C@H](CO)[C@@H](O)[C@H](O)[C@H]3O)ccc21 (single isomer, unassigned): 12.9
CCn1c2ccccc2c2cc(-c3nc(-c4ccc(N5CCN(C)CC5)cc4)c(-c4ccc(N5CCN(C)CC5)cc4)n3-c3ccc(OCCOCCO[C@@H]4O[C@H](CO)[C@H](O)[C@H](O)[C@H]4O)cc3)ccc21 (single isomer, unassigned): 18.2
CCn1c2ccccc2c2cc(-c3nc(-c4ccc(N5CCN(C)CC5)cc4)c(-c4ccc(N5CCN(C)CC5)cc4)n3-c3ccc(OC)cc3)ccc21: 15.1

Here's the next entry for you.
Name the recorded Kd of the item CCn1c2ccccc2c2cc(-c3nc(-c4ccc(N5CCN(C)CC5)cc4)c(-c4ccc(N5CCN(C)CC5)cc4)n3-c3ccc(O[C@@H]4O[C@H](CO)[C@@H](O)[C@H](O)[C@H]4O)cc3)ccc21 in your answer. 12.5
